Assay: Solubility assessment at room temperature by solvent aliquot addition and visual inspection
Assay type: physicochemical
Conditions: organic solvent or mixture, thermodynamic from solid, THF
measured.quantity: solubility

compound COc1ccc2c(O[C@@H]3C[C@H]4C(=O)N[C@]5(C(=O)[N-]S(=O)(=O)C6CC6)C[C@H]5/C=C\CCCCC[C@H](CC(=O)N5CCCC(F)(F)C5)C(=O)N4C3)cc(-c3nc(C(C)C)cs3)nc2c1C.[Na+] [ACH-0142684 sodium salt] , solubility observed: 9.2 to 18.4 mg/mL

###

Experiment: Solubility in screen solvents derived from loading in solvent and dissolution
Assay type: physicochemical
Settings: Chlorobenzene, organic solvent or mixture, thermodynamic from solid
measured.quantity: solubility

compound COc1ccc2c(O[C@@H]3C[C@H]4C(=O)N[C@]5(C(=O)NS(=O)(=O)C6CC6)C[C@H]5/C=C\CCCCC[C@H](CC(=O)N5CCCC(F)(F)C5)C(=O)N4C3)cc(-c3nc(C(C)C)cs3)nc2c1C , solubility observed: < 50 mg/mL

###

Test: Solubility assessment at room temperature by solvent aliquot addition and visual inspection
Type: physicochemical
Conditions: organic solvent or mixture, thermodynamic from solid, TFE
measured.quantity: solubility

compound COc1ccc2c(O[C@@H]3C[C@H]4C(=O)N[C@]5(C(=O)[N-]S(=O)(=O)C6CC6)C[C@H]5/C=C\CCCCC[C@H](CC(=O)N5CCCC(F)(F)C5)C(=O)N4C3)cc(-c3nc(C(C)C)cs3)nc2c1C.[Na+] [ACH-0142684 sodium salt] , solubility observed: 100 to 133 mg/mL

###

Assay: Solubility assessment at room temperature by solvent aliquot addition and visual inspection
Type: physicochemical
Conditions: thermodynamic from solid, Water
measured.quantity: solubility

compound COc1ccc2c(O[C@@H]3C[C@H]4C(=O)N[C@]5(C(=O)[N-]S(=O)(=O)C6CC6)C[C@H]5/C=C\CCCCC[C@H](CC(=O)N5CCCC(F)(F)C5)C(=O)N4C3)cc(-c3nc(C(C)C)cs3)nc2c1C.[Na+] [ACH-0142684 sodium salt] , solubility observed: < 990 µg/mL

###

Assay: Solubility in screen solvents derived from loading in solvent and dissolution
Type: physicochemical
Settings: acetone with 20 vol % water, organic solvent or mixture, thermodynamic from solid; Acetone: 20 vol % Water
measured.quantity: solubility

compound COc1ccc2c(O[C@@H]3C[C@H]4C(=O)N[C@]5(C(=O)NS(=O)(=O)C6CC6)C[C@H]5/C=C\CCCCC[C@H](CC(=O)N5CCCC(F)(F)C5)C(=O)N4C3)cc(-c3nc(C(C)C)cs3)nc2c1C , solubility observed: < 96 mg/mL
